assayed.target: Toll-like receptor 4 (Homo sapiens)
Sequence (O00206 whole entry): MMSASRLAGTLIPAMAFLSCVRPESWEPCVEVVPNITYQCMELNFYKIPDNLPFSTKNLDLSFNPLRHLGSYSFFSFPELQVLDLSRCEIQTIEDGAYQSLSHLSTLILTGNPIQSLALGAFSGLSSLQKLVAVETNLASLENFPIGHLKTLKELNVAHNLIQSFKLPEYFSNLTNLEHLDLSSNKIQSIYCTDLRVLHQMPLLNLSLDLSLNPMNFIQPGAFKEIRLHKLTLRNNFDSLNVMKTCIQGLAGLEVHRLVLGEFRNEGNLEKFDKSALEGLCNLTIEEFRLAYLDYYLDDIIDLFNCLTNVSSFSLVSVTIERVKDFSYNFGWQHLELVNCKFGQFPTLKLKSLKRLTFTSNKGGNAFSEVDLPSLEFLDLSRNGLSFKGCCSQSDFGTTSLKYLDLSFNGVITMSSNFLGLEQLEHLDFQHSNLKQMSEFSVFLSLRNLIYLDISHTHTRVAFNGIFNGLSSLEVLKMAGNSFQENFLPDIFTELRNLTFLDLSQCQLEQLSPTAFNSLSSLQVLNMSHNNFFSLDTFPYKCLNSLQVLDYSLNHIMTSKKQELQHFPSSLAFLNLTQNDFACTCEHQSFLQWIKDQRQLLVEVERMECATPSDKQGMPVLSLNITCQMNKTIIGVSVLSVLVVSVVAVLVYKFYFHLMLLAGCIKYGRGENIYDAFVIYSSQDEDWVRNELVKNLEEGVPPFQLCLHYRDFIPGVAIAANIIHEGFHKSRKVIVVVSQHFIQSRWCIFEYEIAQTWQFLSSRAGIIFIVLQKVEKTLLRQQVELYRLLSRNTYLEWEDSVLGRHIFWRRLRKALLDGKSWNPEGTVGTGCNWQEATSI
assay.text: Agonist activity at human recombinant TLR4 expressed in HEK293 cells by SEAP reporter assay
Reported EC50 is given for each of the following compounds.
measured.parameter: EC50 (µM)

{"compound": "COc1cc([C@H]2[C@H]3c4c(c5ccccc5[nH]c4=O)OC(C)(C)[C@H]3[C@@H]2C2CCCC2)cc(OC)c1OC", "assayed.target": "Toll-like receptor 4 (Homo sapiens)", "op": "=", "experimental.result": 0.63}
{"compound": "COc1cc([C@@H]2[C@@H](C)[C@@H]3C(C)Oc4c(c(=O)[nH]c5ccccc45)[C@H]23)cc(OC)c1OC (single isomer, unassigned)", "assayed.target": "Toll-like receptor 4 (Homo sapiens)", "op": ">", "experimental.result": 10}
{"compound": "COc1ccc([C@@H]2[C@@H](C)[C@H]3[C@@H]2c2c(c4ccccc4[nH]c2=O)OC3(C)C)cc1OC", "assayed.target": "Toll-like receptor 4 (Homo sapiens)", "op": "=", "experimental.result": 3.1}
{"compound": "CCC[C@]1(c2cc(OC)cc(OC)c2)O[C@H]2c3c(c4ccccc4[nH]c3=O)OC(C)(C)[C@H]2O1", "assayed.target": "Toll-like receptor 4 (Homo sapiens)", "op": "=", "experimental.result": 3.1}

###

assayed.target: Toll-like receptor 4 (Homo sapiens)
assay.text: Intrinsic activity at human recombinant TLR4 expressed in HEK293 cells by SEAP reporter assay relative to LPS
Type: cell-based
The following molecules are shown together with reported Intrinsic activity values.

{"smiles.entry": "COc1ccc([C@@H]2[C@@H](C)[C@H]3[C@@H]2c2c(c4ccccc4n(C)c2=O)OC3(C)C)cc1OC", "Intrinsic activity": 0.64}
{"smiles.entry": "CC[C@@H]1[C@@H](c2ccc(OC)c(OC)c2)[C@H]2c3c(c4ccccc4[nH]c3=O)OC(C)(C)[C@@H]12", "Intrinsic activity": 1.01}
{"smiles.entry": "COc1ccc([C@@H]2[C@@H](C(C)=O)[C@H]3[C@@H]2c2c(c4ccccc4[nH]c2=O)OC3(C)C)cc1OC", "Intrinsic activity": 0.3}
{"smiles.entry": "CCCC[C@@H]1[C@@H](c2cc(OC)c(OC)c(OC)c2)[C@H]2c3c(c4ccccc4[nH]c3=O)OC(C)(C)[C@@H]12", "Intrinsic activity": 0.69}
{"smiles.entry": "COc1ccc([C@H]2[C@H]3c4c(c5ccccc5[nH]c4=O)OC(C)(C)[C@H]3[C@@H]2C2CC2)cc1OCCCN1CCOCC1", "Intrinsic activity": 0.19}
{"smiles.entry": "CCCC[C@@H]1[C@@H](c2ccc(OC)c(OC)c2)[C@H]2c3c(c4ccccc4[nH]c3=O)OC(C)(C)[C@@H]12", "Intrinsic activity": 1.01}
{"smiles.entry": "COc1cc([C@H]2[C@H]3c4c(c5ccccc5n(C)c4=O)OC(C)(C)[C@H]3[C@@H]2C2CCCC2)cc(OC)c1OC", "Intrinsic activity": 0.69}
{"smiles.entry": "COc1ccc([C@H]2[C@H]3c4c(c5ccccc5[nH]c4=O)OC(C)(C)[C@H]3[C@@H]2C2CC2)cc1OC", "Intrinsic activity": 0.75}
{"smiles.entry": "COc1ccc([C@H]2[C@H]3c4c(c5ccccc5[nH]c4=O)OC(C)(C)[C@H]3[C@@H]2C2CC2)cc1OCCCO", "Intrinsic activity": 0.88}
{"smiles.entry": "COc1ccc([C@H]2[C@H]3c4c(c5ccccc5n(C)c4=O)OC(C)(C)[C@H]3[C@@H]2C(C)C)cc1Cl", "Intrinsic activity": 0.53}
{"smiles.entry": "CCOc1ccc([C@H]2[C@H]3c4c(c5ccccc5[nH]c4=O)OC(C)(C)[C@H]3[C@@H]2C(C)C)cc1OC", "Intrinsic activity": 0.19}
{"smiles.entry": "COc1ccc([C@H]2[C@H]3c4c(c5ccccc5[nH]c4=O)OC(C)(C)[C@H]3[C@@H]2C(C)C)cc1OC(=O)CCC(=O)O", "Intrinsic activity": 0.29}
{"smiles.entry": "COc1cc([C@@H]2[C@@H](C)[C@H]3[C@@H]2c2c(c4ccccc4[nH]c2=O)OC3(C)C)cc(OC)c1OC", "Intrinsic activity": 0.95}
{"smiles.entry": "CC[C@@H]1[C@@H](c2cc(OC)c(OC)c(OC)c2)[C@H]2c3c(c4ccccc4[nH]c3=O)OC(C)(C)[C@@H]12", "Intrinsic activity": 1.05}
{"smiles.entry": "CC[C@@H]1[C@@H](c2ccc(OC)c(OC)c2)[C@H]2c3c(c4ccccc4n(C)c3=O)OC(C)(C)[C@@H]12", "Intrinsic activity": 0.61}

# credit: ChEMBL document CHEMBL3259572
